I'd be grateful if you could share measured log p for these entries.
experiment: physchem; format: physicochemical; settings: pH 7.8

Which measured log p value corresponds to CC1CCN(c2cccc(Nc3ncc(C(F)(F)F)c(NC4CCC4)n3)c2)C1=O (stereo not drawn) ?
3.67[c];

What value of log p has been reported for the following molecule? CC1CC(=O)N(c2cccc(Nc3ncc(C(F)(F)F)c(NC4CC4)n3)c2)C1 (stereo not drawn)
3.06[c];

Entry CN(c1cccc(N2CCCC2=O)c1)c1ncc(Cl)c(N(C)C2CC2)n1 : reported log p = ?
3.66[c];

Give its log p value. Item: CC1CC(=O)N(c2cccc(Nc3ncc(Cl)c(NC4CCC4)n3)c2)C1=O (stereo not drawn)
2.67[c];

Which value of log p has been reported for O=C1CCC(CO)N1c1cccc(Nc2ncc(Cl)c(NC3CC3)n2)c1 (stereo not drawn) in the records?
1.6[c]

I have this molecule here, CC(C)Nc1nc(Nc2cccc(N3C(=O)C(C)CC3C)c2)ncc1Cl (stereo not drawn) , and I need its recorded log p.
3.15[c];

Dear colleague, I am looking for the recorded log p of the following molecule: CC1CC1Nc1nc(Nc2cccc(N3CCCCC3=O)c2)ncc1Br (stereo not drawn)
2.67[c];

Record request: log p value, item CC1CN(c2cccc(Nc3ncc(Br)c(NC4CCC4)n3)c2)C(=O)O1 (stereo not drawn)
3.17[c];

Any idea what its log p is? The molecule is Cc1ccc(Nc2ncc(C(F)(F)F)c(NC3CC3)n2)cc1N1CCCC1=O
2.62[c];

Name the recorded log p for CC(C)Nc1nc(Nc2cccc(N3C(=O)OCC3C)c2)ncc1Br (stereo not drawn) .
2.83[c];

Can you look up the measured log p of CC1(C)CC1Nc1nc(Nc2cccc(N3CCCC3=O)c2)ncc1Cl (stereo not drawn) for me?
2.99[c];

So what does the record say about log p for O=C1CCCN1c1cccc(Nc2ncc(Cl)c(N3CCOCC3)n2)c1 ?
2.29[c];

Request the reported log p associated with CC1CC(Nc2nc(Nc3cccc(N4C(=O)CC(C)(C)C4=O)c3)ncc2Cl)C1 (stereo not drawn)
3.22[c];

# lookup: log p of O=C1CCCN1c1cccc(Nc2ncc(Cl)c(NCC(F)F)n2)c1
2.19[c]

For CC1CC1Nc1nc(Nc2cccc(N3C(=O)OC[C@H]3C(C)C)c2)ncc1Cl (stereo partly drawn) , what is its reported log p?
3.46[c];

So what does the record say about log p for CC(C)C1COC(=O)N1c1cccc(Nc2ncc(Br)c(NC3CCC3)n2)c1 (stereo not drawn) ?
3.71[c];

Could you share which log p value was measured for CC1CC1Nc1nc(Nc2cccc(N3C(=O)OCC3C)c2)ncc1Br (stereo not drawn) ?
2.9[c];

Endpoint output: log p of CC1CC(C)N(c2cccc(Nc3ncc(C(F)(F)F)c(NC4CCC4)n3)c2)C1=O (stereo not drawn) . Value?
3.74[c];

Tell me the measured log p of CC1CC(Nc2nc(Nc3cccc(N4C(=O)CCC4C)c3)ncc2Cl)C1 (stereo not drawn) , please.
3.16[c];

Any idea what log p was measured for COCC(C)Nc1nc(Nc2cccc(N3C(=O)CCC3=O)c2)ncc1Cl (stereo not drawn) ?
2.13[c];

What does the data say about its log p? Entry: CC1(Nc2nc(Nc3cccc(N4CCCC4=O)c3)ncc2C(F)(F)F)CC1
2.95[c];

Looking for the measured log p of CC(C)Nc1nc(Nc2cccc(N3CCC(C)C3=O)c2)ncc1Cl (stereo not drawn) , can you help?
3.07[c];

I am curious: what log p value has been reported for CN1CCN(c2cccc(Nc3ncc(Cl)c(NC4CC4(C)C)n3)c2)C1=O (stereo not drawn) ?
3.06[c];

log p lookup needed for CC1CC(C)N(c2cccc(Nc3ncc(Br)c(NC4CC4)n3)c2)C1=O (stereo not drawn) , thanks.
2.91[c];

Which log p is reported for this molecule? CCC(C)Nc1nc(Nc2cccc(N3CCCC3=O)c2)ncc1Cl (stereo not drawn)
2.92[c]

What does the record list as log p for CCN(C)c1nc(Nc2cccc(N3CCCC3=O)c2)ncc1Cl ?
2.91[c];

Form field: reported log p of Cc1cc(Nc2ncc(C(F)(F)F)c(NC3CC3)n2)cc(N2CCCC2=O)c1
2.98[c];

Can you look up the measured log p of O=C1OCCN1c1ccc(Nc2ncc(I)c(NC3CC3)n2)cc1 for me?
2.48[c]

Reported log p, molecule CC1CC1Nc1nc(Nc2cccc(N3C(=O)CC(C)(C)C3=O)c2)ncc1Br (stereo not drawn) : ____
3.11[c];

Fill in the blank: the reported log p of CC1CC1Nc1nc(Nc2cccc(N3CCOC3=O)c2)ncc1Br (stereo not drawn) is ____.
2.79[c];

Quick check: log p of O=C1CCCN1c1cccc(Nc2ncc(C(F)(F)F)c(NCC(F)(F)C(F)(F)F)n2)c1 ?
3.07[c];

Consider the molecule CSCC(C)(C)Nc1nc(Nc2ccc(N3CCOC3=O)cc2)ncc1Cl and give its measured log p.
3.09[c]

Name the recorded log p for O=C1CCCN1c1cccc(Nc2ncc(C(F)(F)F)c(NCCF)n2)c1 .
2.67[c];

Form field: reported log p of CC1COC(=O)N1c1cccc(Nc2ncc(Cl)c(NC3CC3(C)C)n2)c1 (stereo not drawn)
3.12[c];

Given the entry O=C1CCCN1c1cc(Nc2ncc(Cl)c(NC3CC3)n2)ccc1OC(F)(F)F , report its measured log p.
2.91[c]

What log p value was documented for this molecule, CC(C)Nc1nc(Nc2cccc(N3CCCC3=O)c2)ncc1Cl ?
2.64[c]

The origin of these recorded values is patent US20110245242A1.
